pIC50 for assorted compounds
tested on: 993429-296-R-J1-PDC complex spheroid growth, percent test/control; assay: Anticancer human tumor 993429-296-R-J1-PDC patient-derived uterine sarcoma cell line growth inhibition [Asc]; conditions: curve of first compound; second compound 0.03 µM
pIC50: −log10 of the molar value.

| COMPOUND | TARGET_OF_ASSAY | RELATION | pIC50 |
| --- | --- | --- | --- |
| C=C(F)C(=O)N1CCN(c2nc(OCC3CCCN3C)nc3c2CCN(c2cccc4cccc(Cl)c24)C3)CC1CC#N (stereo not given) + CCN1C(C(=O)NC23CCC(C(=O)O)(CC2)CC3)C(c2cccc(Cl)c2F)C2(C(=O)Nc3cc(Cl)ccc32)C12CCCCC2 | 993429-296-R-J1-PDC complex spheroid growth, percent test/control | = | 5.96 |
| Cn1ncnc1[C@H]1c2n[nH]c(=O)c3cc(F)cc(c23)N[C@@H]1c1ccc(F)cc1 + CCN1C(C(=O)NC23CCC(C(=O)O)(CC2)CC3)C(c2cccc(Cl)c2F)C2(C(=O)Nc3cc(Cl)ccc32)C12CCCCC2 | 993429-296-R-J1-PDC complex spheroid growth, percent test/control | < | 7.00 |
| C=CC(=O)N1CCN(c2nc(=O)n(-c3c(C)ccnc3C(C)C)c3nc(-c4c(O)cccc4F)c(F)cc23)C(C)C1 (stereo not given) + CCN1C(C(=O)NC23CCC(C(=O)O)(CC2)CC3)C(c2cccc(Cl)c2F)C2(C(=O)Nc3cc(Cl)ccc32)C12CCCCC2 | 993429-296-R-J1-PDC complex spheroid growth, percent test/control | < | 5.00 |
| C#Cc1c(F)ccc2cc(O)cc(-c3ncc4c(N5CC6CCC(C5)N6)nc(OCC56CCCN5CC(F)C6)nc4c3F)c12 (stereo not given) + CCN1C(C(=O)NC23CCC(C(=O)O)(CC2)CC3)C(c2cccc(Cl)c2F)C2(C(=O)Nc3cc(Cl)ccc32)C12CCCCC2 | 993429-296-R-J1-PDC complex spheroid growth, percent test/control | = | 5.29 |
| COc1c(OCCCN2CCOCC2)ccc2c3n(c(=NC(=O)c4cnc(N)nc4)nc12)CCN3 + CCN1C(C(=O)NC23CCC(C(=O)O)(CC2)CC3)C(c2cccc(Cl)c2F)C2(C(=O)Nc3cc(Cl)ccc32)C12CCCCC2 | 993429-296-R-J1-PDC complex spheroid growth, percent test/control | = | 7.61 |

###

tested on: 993429-296-R-J1-PDC complex spheroid growth, percent test/control; assay: Anticancer human tumor 993429-296-R-J1-PDC cell line growth inhibition [Asc]; conditions: second compound 0.316 µM; first compound 0.0316 µM; stronger effect = lower value;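 further: spheroids exposed to compounds for seven days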

| COMPOUND | viability, T/C |
| --- | --- |
| NC1CCC(NC2CC2c2ccccc2)CC1 (configuration not stated) + Cc1c(S(C)(=O)=O)c(-c2cc(F)cc(N3CCN(c4ccc(NS(=O)(=O)c5ccc(NC(CCN6CCC(C(=O)OCCCP(=O)(O)O)CC6)CSc6ccccc6)c(S(=O)(=O)C(F)(F)F)c5)cc4)CC3)c2)c(-c2ccc(Cl)cc2)n1C(C)C | 47.9% |
| O=C(c1cc(Cc2n[nH]c(=O)c3ccccc23)ccc1F)N1CCN(C(=O)C2CC2)CC1 + CNC(C)C(=O)NC1CN(S(=O)(=O)c2cccc(S(=O)(=O)N3CCC4CCC(C(=O)NC(c5ccccc5)c5ccccc5)N4C(=O)C(NC(=O)C(C)NC)C3)c2)CCC2CCC(C(=O)NC(c3ccccc3)c3ccccc3)N2C1=O | 60.2% |
| O=C(c1cc(Cc2n[nH]c(=O)c3ccccc23)ccc1F)N1CCN(C(=O)C2CC2)CC1 + Cc1c(S(C)(=O)=O)c(-c2cc(F)cc(N3CCN(c4ccc(NS(=O)(=O)c5ccc(NC(CCN6CCC(C(=O)OCCCP(=O)(O)O)CC6)CSc6ccccc6)c(S(=O)(=O)C(F)(F)F)c5)cc4)CC3)c2)c(-c2ccc(Cl)cc2)n1C(C)C | 55.8% |
| CCN1CCN(Cc2ccc(Nc3ncc(F)c(-c4cc(F)c5nc(C)n(C(C)C)c5c4)n3)nc2)CC1 + Cc1c(S(C)(=O)=O)c(-c2cc(F)cc(N3CCN(c4ccc(NS(=O)(=O)c5ccc(NC(CCN6CCC(C(=O)OCCCP(=O)(O)O)CC6)CSc6ccccc6)c(S(=O)(=O)C(F)(F)F)c5)cc4)CC3)c2)c(-c2ccc(Cl)cc2)n1C(C)C | 63.5% |
| C=CC(=O)N1CCN(c2nc(=O)n(-c3c(C)ccnc3C(C)C)c3nc(-c4c(O)cccc4F)c(F)cc23)C(C)C1 (configuration not stated) + CNC(C)C(=O)NC1CN(S(=O)(=O)c2cccc(S(=O)(=O)N3CCC4CCC(C(=O)NC(c5ccccc5)c5ccccc5)N4C(=O)C(NC(=O)C(C)NC)C3)c2)CCC2CCC(C(=O)NC(c3ccccc3)c3ccccc3)N2C1=O | 52.3% |
| Cn1ncnc1[C@H]1c2n[nH]c(=O)c3cc(F)cc(c23)N[C@@H]1c1ccc(F)cc1 + CNC(C)C(=O)NC1CN(S(=O)(=O)c2cccc(S(=O)(=O)N3CCC4CCC(C(=O)NC(c5ccccc5)c5ccccc5)N4C(=O)C(NC(=O)C(C)NC)C3)c2)CCC2CCC(C(=O)NC(c3ccccc3)c3ccccc3)N2C1=O | 17.5% |
| O=C(c1ccc(F)c(F)c1Nc1ccc(I)cc1F)N1CC(O)([C@@H]2CCCCN2)C1 + CNC(C)C(=O)NC1CN(S(=O)(=O)c2cccc(S(=O)(=O)N3CCC4CCC(C(=O)NC(c5ccccc5)c5ccccc5)N4C(=O)C(NC(=O)C(C)NC)C3)c2)CCC2CCC(C(=O)NC(c3ccccc3)c3ccccc3)N2C1=O | 50.7% |

###

tested on: 993429-296-R-J1-PDC complex spheroid growth, percent test/control; assay: Anticancer human tumor 993429-296-R-J1-PDC cell line growth inhibition [Asc]; conditions: second compound 1 µM; first compound 0.316 µM; stronger effect = lower value;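 further: spheroids exposed to compounds for seven days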
viability, T/C for assorted compounds

| COMPOUND | UNITS | viability, T/C |
| --- | --- | --- |
| O=C(c1ccc(F)c(F)c1Nc1ccc(I)cc1F)N1CC(O)([C@@H]2CCCCN2)C1 + CNC(C)C(=O)NC1CN(S(=O)(=O)c2cccc(S(=O)(=O)N3CCC4CCC(C(=O)NC(c5ccccc5)c5ccccc5)N4C(=O)C(NC(=O)C(C)NC)C3)c2)CCC2CCC(C(=O)NC(c3ccccc3)c3ccccc3)N2C1=O | % | 12.7 |
| O=C(c1ccc(F)c(F)c1Nc1ccc(I)cc1F)N1CC(O)([C@@H]2CCCCN2)C1 + Cc1c(S(C)(=O)=O)c(-c2cc(F)cc(N3CCN(c4ccc(NS(=O)(=O)c5ccc(NC(CCN6CCC(C(=O)OCCCP(=O)(O)O)CC6)CSc6ccccc6)c(S(=O)(=O)C(F)(F)F)c5)cc4)CC3)c2)c(-c2ccc(Cl)cc2)n1C(C)C | % | 0.22 |
| C#Cc1c(F)ccc2cc(O)cc(-c3ncc4c(N5CC6CCC(C5)N6)nc(OCC56CCCN5CC(F)C6)nc4c3F)c12 (configuration not stated) + Cc1c(S(C)(=O)=O)c(-c2cc(F)cc(N3CCN(c4ccc(NS(=O)(=O)c5ccc(NC(CCN6CCC(C(=O)OCCCP(=O)(O)O)CC6)CSc6ccccc6)c(S(=O)(=O)C(F)(F)F)c5)cc4)CC3)c2)c(-c2ccc(Cl)cc2)n1C(C)C | % | 50.7 |
| COc1c(OCCCN2CCOCC2)ccc2c3n(c(=NC(=O)c4cnc(N)nc4)nc12)CCN3 + CNC(C)C(=O)NC1CN(S(=O)(=O)c2cccc(S(=O)(=O)N3CCC4CCC(C(=O)NC(c5ccccc5)c5ccccc5)N4C(=O)C(NC(=O)C(C)NC)C3)c2)CCC2CCC(C(=O)NC(c3ccccc3)c3ccccc3)N2C1=O | % | 4.7 |
| CCN1CCN(Cc2ccc(Nc3ncc(F)c(-c4cc(F)c5nc(C)n(C(C)C)c5c4)n3)nc2)CC1 + Cc1c(S(C)(=O)=O)c(-c2cc(F)cc(N3CCN(c4ccc(NS(=O)(=O)c5ccc(NC(CCN6CCC(C(=O)OCCCP(=O)(O)O)CC6)CSc6ccccc6)c(S(=O)(=O)C(F)(F)F)c5)cc4)CC3)c2)c(-c2ccc(Cl)cc2)n1C(C)C | % | 55 |
| O=C(c1cc(Cc2n[nH]c(=O)c3ccccc23)ccc1F)N1CCN(C(=O)C2CC2)CC1 + Cc1c(S(C)(=O)=O)c(-c2cc(F)cc(N3CCN(c4ccc(NS(=O)(=O)c5ccc(NC(CCN6CCC(C(=O)OCCCP(=O)(O)O)CC6)CSc6ccccc6)c(S(=O)(=O)C(F)(F)F)c5)cc4)CC3)c2)c(-c2ccc(Cl)cc2)n1C(C)C | % | 57.2 |
| CNC(C)C(=O)NC1CN(S(=O)(=O)c2cccc(S(=O)(=O)N3CCC4CCC(C(=O)NC(c5ccccc5)c5ccccc5)N4C(=O)C(NC(=O)C(C)NC)C3)c2)CCC2CCC(C(=O)NC(c3ccccc3)c3ccccc3)N2C1=O (configuration not stated) + Cc1c(S(C)(=O)=O)c(-c2cc(F)cc(N3CCN(c4ccc(NS(=O)(=O)c5ccc(NC(CCN6CCC(C(=O)OCCCP(=O)(O)O)CC6)CSc6ccccc6)c(S(=O)(=O)C(F)(F)F)c5)cc4)CC3)c2)c(-c2ccc(Cl)cc2)n1C(C)C | % | 41.6 |
| C=C(F)C(=O)N1CCN(c2nc(OCC3CCCN3C)nc3c2CCN(c2cccc4cccc(Cl)c24)C3)CC1CC#N (configuration not stated) + CNC(C)C(=O)NC1CN(S(=O)(=O)c2cccc(S(=O)(=O)N3CCC4CCC(C(=O)NC(c5ccccc5)c5ccccc5)N4C(=O)C(NC(=O)C(C)NC)C3)c2)CCC2CCC(C(=O)NC(c3ccccc3)c3ccccc3)N2C1=O | % | 37.6 |
| C=C(F)C(=O)N1CCN(c2nc(OCC3CCCN3C)nc3c2CCN(c2cccc4cccc(Cl)c24)C3)CC1CC#N (configuration not stated) + Cc1c(S(C)(=O)=O)c(-c2cc(F)cc(N3CCN(c4ccc(NS(=O)(=O)c5ccc(NC(CCN6CCC(C(=O)OCCCP(=O)(O)O)CC6)CSc6ccccc6)c(S(=O)(=O)C(F)(F)F)c5)cc4)CC3)c2)c(-c2ccc(Cl)cc2)n1C(C)C | % | 50.5 |
| CCN1CCN(Cc2ccc(Nc3ncc(F)c(-c4cc(F)c5nc(C)n(C(C)C)c5c4)n3)nc2)CC1 + CNC(C)C(=O)NC1CN(S(=O)(=O)c2cccc(S(=O)(=O)N3CCC4CCC(C(=O)NC(c5ccccc5)c5ccccc5)N4C(=O)C(NC(=O)C(C)NC)C3)c2)CCC2CCC(C(=O)NC(c3ccccc3)c3ccccc3)N2C1=O | % | 49.6 |
| COc1c(OCCCN2CCOCC2)ccc2c3n(c(=NC(=O)c4cnc(N)nc4)nc12)CCN3 + Cc1c(S(C)(=O)=O)c(-c2cc(F)cc(N3CCN(c4ccc(NS(=O)(=O)c5ccc(NC(CCN6CCC(C(=O)OCCCP(=O)(O)O)CC6)CSc6ccccc6)c(S(=O)(=O)C(F)(F)F)c5)cc4)CC3)c2)c(-c2ccc(Cl)cc2)n1C(C)C | % | 0.68 |
| C=CC(=O)N1CCN(c2nc(=O)n(-c3c(C)ccnc3C(C)C)c3nc(-c4c(O)cccc4F)c(F)cc23)C(C)C1 (configuration not stated) + CNC(C)C(=O)NC1CN(S(=O)(=O)c2cccc(S(=O)(=O)N3CCC4CCC(C(=O)NC(c5ccccc5)c5ccccc5)N4C(=O)C(NC(=O)C(C)NC)C3)c2)CCC2CCC(C(=O)NC(c3ccccc3)c3ccccc3)N2C1=O | % | 61.5 |
